Target: GST-Bcl-2 ΔTM [GST: P08515]
Test: fluorescence polarization, direct binding to GST-Bcl-2
Where no end group is shown, it is not given here. [ ]: non-standard residue; d: D form. The star is where a group is joined. FITC = O=C1OC2(c3ccc(O)cc3Oc3cc(O)ccc32)c2ccc(NC(=S)*)cc21; Ahx = NCCCCCC(=O)O
QUANTITY NAME: Kd

q: Quick check: Kd of {FITC-Ahx}-FSRSLHSLLG[Ahx][dR][dR][dR][dR][dR][dR][dR][dR] [FITC-TR3-9-r8] ?
a: < 100 nM
